- systemTested: human ether-à-go-go-related gene (hERG) potassium channel (human, UniProt Q12809)
- Sequence (Q12809 whole entry, looked up): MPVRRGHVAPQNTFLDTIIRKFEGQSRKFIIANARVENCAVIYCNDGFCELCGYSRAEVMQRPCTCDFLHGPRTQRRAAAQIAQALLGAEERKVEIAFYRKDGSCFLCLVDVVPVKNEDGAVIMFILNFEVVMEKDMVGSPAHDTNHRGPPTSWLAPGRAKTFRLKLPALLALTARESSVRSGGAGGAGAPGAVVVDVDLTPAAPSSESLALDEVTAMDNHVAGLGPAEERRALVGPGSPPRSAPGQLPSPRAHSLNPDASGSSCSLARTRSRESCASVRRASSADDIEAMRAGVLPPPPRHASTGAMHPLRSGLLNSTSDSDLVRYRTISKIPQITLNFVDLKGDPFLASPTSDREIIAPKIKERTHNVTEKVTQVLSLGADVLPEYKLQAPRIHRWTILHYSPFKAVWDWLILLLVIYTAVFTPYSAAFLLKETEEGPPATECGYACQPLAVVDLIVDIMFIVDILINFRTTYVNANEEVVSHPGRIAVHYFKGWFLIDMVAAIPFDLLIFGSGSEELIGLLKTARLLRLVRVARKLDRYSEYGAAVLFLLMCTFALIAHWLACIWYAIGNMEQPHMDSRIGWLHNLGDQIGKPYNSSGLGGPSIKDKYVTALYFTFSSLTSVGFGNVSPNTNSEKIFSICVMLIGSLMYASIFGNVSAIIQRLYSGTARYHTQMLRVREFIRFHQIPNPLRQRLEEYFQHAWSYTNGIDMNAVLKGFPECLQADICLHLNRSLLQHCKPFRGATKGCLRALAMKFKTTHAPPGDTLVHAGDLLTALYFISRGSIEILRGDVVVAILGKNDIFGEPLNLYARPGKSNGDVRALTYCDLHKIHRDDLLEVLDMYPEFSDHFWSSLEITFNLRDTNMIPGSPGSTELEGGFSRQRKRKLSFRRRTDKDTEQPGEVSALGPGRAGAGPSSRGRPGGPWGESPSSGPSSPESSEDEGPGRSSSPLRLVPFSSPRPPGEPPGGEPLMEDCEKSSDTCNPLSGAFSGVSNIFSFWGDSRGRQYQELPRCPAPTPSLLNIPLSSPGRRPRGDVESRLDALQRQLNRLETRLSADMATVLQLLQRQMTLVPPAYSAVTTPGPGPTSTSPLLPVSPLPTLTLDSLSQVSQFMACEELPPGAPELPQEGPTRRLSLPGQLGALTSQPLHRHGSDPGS
- protocolText: primary screen, population patch clamp on CHO cells stably expressing hERG; higher = less effect of the substance
Hit rate of the full screen: of about 310,000 compounds, about 2,200 (0.71%) showed an effect of 50% or more. The effect is printed as a negative number. This is one part of a sample in which strong results are shown more often than they occur.
Quick reference for hERG current change (%, negative = inhibition) at 1uM among some molecules
Numbers only here, please. The scale is %.

> print(dat)
                                   molecule  recordedresult
1  CC(C)C(NC(=O)c1ccccc1)c1nnc(SCC(=O)Nc2nccs2)n1C (centres unmarked)            15.7
2  O=C(c1ccccc1)c1c[nH]c(C(=O)C(Cl)(Cl)Cl)c1              16
3  CC(NC(=O)c1cc2c(=O)n3ccccc3nc2n(CC2CCCO2)c1=N)c1ccccc1 (centres unmarked)           -72.3
4               CCOC(=O)Cc1nnc(-c2ccccc2)o1            5.78

IN: Kindly indicate its recorded hERG current change (%, negative = inhibition) at 1uM. Item: Cc1ccccc1NC(=O)c1cccc2c1C(=O)N(C1CCCCC1)C2
OUT: 15
